Kindly supply the reported MIC Staphylococcus aureus (GC 3053) values for the records listed here.
# Tested on: Staphylococcus sp.
# PROTOCOL_TEXT: in vitro antibacterial evaluation, MIC by broth dilution
# Assay type: cell-based
# MEASUREMENT_SETUP: broth dilution, 18 hours at 35° C.

Worked set:
MOLECULE	SYSTEM_NAME	MIC Staphylococcus aureus (GC 3053)
CCCOc1ccc(COCC2OC(OC3C(CO)OC(Oc4ccc(CC5NC(=O)C(C(C)c6ccccc6)NC(=O)CNC(=O)C(CO)NC(=O)C(C(O)C6CNC(=N)N6C6OC(CO)C(O)C(O)C6O)NC(=O)C(C(O)C6CNC(=N)N6)NC5=O)cc4)C(O)C3O)C(O)C(O)C2O)cc1 (centres unmarked) [Example 235]	Staphylococcus sp.	1 to 2 µg/mL
CC(c1ccccc1)C1NC(=O)CNC(=O)C(CO)NC(=O)C(C(O)C2CNC(=N)N2C2OC(CO)C(O)C(O)C2O)NC(=O)C(C(O)C2CNC(=N)N2)NC(=O)C(Cc2ccc(OC3OC(CO)C(OC4OC5COC(C6CC=CCC6)OC5C(O)C4O)C(O)C3O)cc2)NC1=O (centres unmarked) [Example 115]	Staphylococcus sp.	1 µg/mL
CC(c1ccccc1)C1NC(=O)CNC(=O)C(CO)NC(=O)C(C(O)C2CNC(=N)N2C2OC(CO)C(O)C(O)C2O)NC(=O)C(C(O)C2CNC(=N)N2)NC(=O)C(Cc2ccc(OC3OC(CO)C(OC4OC(COCC=Cc5ccccc5)C(O)C(O)C4O)C(O)C3O)cc2)NC1=O (centres unmarked) [Example 242]	Staphylococcus sp.	8 µg/mL
CC(c1ccccc1)C1NC(=O)CNC(=O)C(CO)NC(=O)C(C(O)C2CNC(=N)N2C2OC(CO)C(O)C(O)C2O)NC(=O)C(C(O)C2CNC(=N)N2)NC(=O)C(Cc2ccc(OC3OC(CO)C(OC4OC(CO)C(O)C5OC(c6ccccc6)OC45)C(O)C3O)cc2)NC1=O (single isomer, unassigned) [Example 104b]	Staphylococcus sp.	0.5 µg/mL

Moving on to another molecule below.
(Q) What value of MIC Staphylococcus aureus (GC 3053) has been recorded for this entry: CC(C)=CCCC(C)C1OCC2OC(OC3C(CO)OC(Oc4ccc(CC5NC(=O)C(C(C)c6ccccc6)NC(=O)CNC(=O)C(CO)NC(=O)C(C(O)C6CNC(=N)N6C6OC(CO)C(O)C(O)C6O)NC(=O)C(C(O)C6CNC(=N)N6)NC5=O)cc4)C(O)C3O)C(O)C(O)C2O1 (centres unmarked) [Example 125]
(A) 32 µg/mL

---

# Test system: Enterococcus sp.
# PROTOCOL_TEXT: in vitro antibacterial evaluation, MIC by broth dilution
# Format: cell-based
# MEASUREMENT_SETUP: broth dilution, 18 hours at 35° C.; strain GC 2242
QUANTITY: MIC Enterococcus faecalis (GC 2242) (µg/mL)
Give bare numbers, in µg/mL.

MOLECULE	QUANTITY	VAL
CC(=O)OCC1OC(OC2C(CO)OC(Oc3ccc(CC4NC(=O)C(C(C)c5ccccc5)NC(=O)CNC(=O)C(CO)NC(=O)C(C(O)C5CNC(=N)N5C5OC(CO)C(O)C(O)C5O)NC(=O)C(C(O)C5CNC(=N)N5)NC4=O)cc3)C(O)C2O)C(O)C(OC(=O)CCC(C)C)C1O (stereo not shown) [Example 270b]	MIC Enterococcus faecalis (GC 2242)	16

Moving on to another molecule below.
(Q) What value of MIC Enterococcus faecalis (GC 2242) has been recorded for this entry: CCCCCCCN1CC(C(O)C2NC(=O)C(C(O)C3CNC(=N)N3)NC(=O)C(Cc3ccc(OC4OC(CO)C(OC5OC6COC7(OC6C(O)C5O)C5CC6CC(C5)CC7C6)C(O)C4O)cc3)NC(=O)C(C(C)c3ccccc3)NC(=O)CNC(=O)C(CO)NC2=O)N(C2OC(CO)C(O)C(O)C2O)C1=N (stereo not shown)
(A) 4
